- target_entity: NAD+ probe NADS1.2 (mScarlet mutant-LigA mutant-cpNluc mutant fusion), SEQ ID NO. 7; LigA mutant 1 (DNA ligase LigA mutant), SEQ ID NO. 3 (Enterococcus faecalis, UniProt Q837V6, D286N/K120L/R163D/R68N)
- Construct: purified BRET probe NADS1.2
- Sequence (Q837V6 6-317 R68N/K120L/R163D/D286N): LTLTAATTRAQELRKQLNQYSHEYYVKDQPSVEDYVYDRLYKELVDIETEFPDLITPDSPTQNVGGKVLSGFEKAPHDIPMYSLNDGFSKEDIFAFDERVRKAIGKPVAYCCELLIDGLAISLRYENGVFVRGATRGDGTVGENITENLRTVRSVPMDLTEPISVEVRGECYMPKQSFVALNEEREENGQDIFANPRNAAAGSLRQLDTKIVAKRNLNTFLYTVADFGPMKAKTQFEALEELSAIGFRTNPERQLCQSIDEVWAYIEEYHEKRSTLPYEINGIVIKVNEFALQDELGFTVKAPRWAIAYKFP
- assay_info: Response of NAD+ molecular probe NADS1.2 to NAD+ and different NAD+ analogs
pEC50: −log10 of the molar value.
property_name: pEC50

Report measured pEC50; entry is `NC(=O)C1=CN([C@@H]2O[C@H](COP(=O)(O)OP(=O)(O)OC[C@H]3O[C@@H](n4cnc5c(N)ncnc54)[C@H](O)[C@@H]3O)[C@@H](O)[C@H]2O)C=CC1`
< 3.00
